tested on: CYP3A4; test: Selectivity ratio of IC50 for CYP3A4 in human liver microsomes using testosterone as substrate to IC50 for human transmembrane domain deficient FFAH expressed in Escherichia coli; type: toxicity; details: probe testosterone, read-out: Ratio IC50
parameter.measured: selectivity ratio

{"columns": ["molecule", "target.entity", "result"],
 "data": [
  ["Nc1ncc(C(=O)N[C@H]2CC/C(=C\\c3cccc(Oc4ccc(C(F)(F)F)cn4)c3)CC2)cn1 (configuration not stated)", "CYP3A4", "> 5000"],
  ["Cc1cc(C(=O)N[C@H]2CC/C(=C\\c3cccc(Oc4ccc(C(F)(F)F)cn4)c3)CC2)cnc1N (configuration not stated)", "CYP3A4", "> 5000"]
]}

Recorded values, source ChEMBL document CHEMBL4371025.
